// data source = PubChem BioAssay (NCI)

System: A549 NSCLC
Experimental protocol: NCI tumour cell line growth inhibition, 48 h
Measured TGI values are reported for all entries that follow.

The examples below pair each entry with its known result.
N#CC1=C(/N=C/c2ccccc2)Oc2c(ccc3ccccc23)C1c1ccccc1 (centres undefined) = > 100 µM
C=C1CCC2[C@@H](CCC3[C@]2(C)CCC[C@]3(C)C(=O)OC)C1CC=O (some centres undefined) = 42.5 µM
O=C(CC1(O)C(=O)N(Cc2ccccc2)c2ccccc21)c1ccc(C(=O)NCC2CCC3(CC2)OOC2(CCCCC2)OO3)cc1 (centres undefined) = 0.458 µM
Cc1cn(CCCCC2=NCCCN2)c(=O)[nH]c1=O = > 54.4 µM

# query: TGI of entry CCCCC1(C)C=C/C(=C2/C(=O)O/C(=C\C(=O)O)C2=O)O1 (centres undefined)
> 100 µM

Fill in the blank: the reported TGI of CCOC(=O)CNC(=O)C(CSC(=O)N(O)c1ccc(Cl)cc1)NC(=O)CCC(N)C(=O)OCC (centres undefined) is ____.
> 50 µM

Given NS(=O)(=O)c1nnc(NS(=O)(=O)C(F)(F)F)s1 , state its recorded TGI.
> 100 µM
